# System: affinity purified β2GPI-dependent antiphospholipid antibody
# Run Description: Competitive inhibition ELISA: recombinant β2GPI proteins compete for antibody binding to coated full length recombinant β2GPI
# Parameters: species or system human
# Conditions Used: Ab 6644
Attribute Measured: Max (maximum inhibition observed at concentrations tested) (%)
Give bare numbers, in %.

Molecule: 123--: recombinant β2GPI deletion mutant with domains 1, 2, 3 (protein) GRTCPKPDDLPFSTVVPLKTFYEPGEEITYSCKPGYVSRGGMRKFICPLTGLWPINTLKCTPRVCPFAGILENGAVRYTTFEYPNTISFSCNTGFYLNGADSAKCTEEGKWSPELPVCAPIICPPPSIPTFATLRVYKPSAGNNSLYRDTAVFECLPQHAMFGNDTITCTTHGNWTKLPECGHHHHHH
Unit Name: %
Measured Value: 90

Please turn your attention to the following entry.
// 1234-: recombinant β2GPI deletion mutant with domains 1, 2, 3, 4 (protein) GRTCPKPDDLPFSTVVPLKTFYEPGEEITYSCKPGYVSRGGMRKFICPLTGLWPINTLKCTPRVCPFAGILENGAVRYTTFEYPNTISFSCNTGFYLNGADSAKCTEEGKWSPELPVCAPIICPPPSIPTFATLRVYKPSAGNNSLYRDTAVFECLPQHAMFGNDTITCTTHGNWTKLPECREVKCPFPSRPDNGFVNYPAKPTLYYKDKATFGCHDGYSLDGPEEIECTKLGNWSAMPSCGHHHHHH : Max (maximum inhibition observed at concentrations tested) value = 50
